MEASUREMENT DESCRIPTION: protein stability index of a GFP-peptide fusion (GPS, HEK-293T) (PSI 1-6); higher = more stable;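 further: 24-mer peptide tiles fused after GFP, lentivirally expressed, FACS-sorted into six equal bins by GFP/DsRed ratio, decoded by Illumina sequencing, PSI is the read-weighted mean bin number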
MEASUREMENT CONTEXT: treatment: MLN4924 1 uM, 8 h; c terminus: a fixed tail appended
Please use true (1) whenever protein stability index is not below 3, and false (0) whenever it is.

Worked examples follow.
[
  {
    "RECORD SEQUENCE": "EVFIEWGISAKVFGATTNYGKDIV [ZBED1]",
    "LABEL CLASS": "false (0)"
  },
  {
    "RECORD SEQUENCE": "LLAKNSKPIHTTILNPHVHVIGED [CAMK2B]",
    "LABEL CLASS": "true (1)"
  },
  {
    "RECORD SEQUENCE": "ADTEEPTKDPDVAFHGLSLGLSLT [PSD2]",
    "LABEL CLASS": "true (1)"
  },
  {
    "RECORD SEQUENCE": "VSVESQQVQQVEVEATVKPELTAA [PRPH]",
    "LABEL CLASS": "true (1)"
  },
  {
    "RECORD SEQUENCE": "DNILSLINVNDLSFVTGSHVGELI [WDR41]",
    "LABEL CLASS": "false (0)"
  }
]

Is it the case that PDLTQAPSSLMETLEQHLNTLEGK [SNAP91] has protein stability index reaching or exceeding 3? true (1)

----------
MEASUREMENT DESCRIPTION: protein stability index of a GFP-peptide fusion (GPS, HEK-293T) (PSI 1-6); higher = more stable
MEASUREMENT CONTEXT: treatment: DMSO; c terminus: a fixed tail appended
# maps each entry to its protein stability index
Give only the figure.

[
  {
    "RECORD SEQUENCE": "KNFSNNSNLIRHQRIHAAERLCMG [ZNF263]",
    "OUTCOME MEASURE": "protein stability index",
    "MEASURED": 2.86
  },
  {
    "RECORD SEQUENCE": "ERAHKGEKPYGCSECGKAFPRKSE [ZNF649]",
    "OUTCOME MEASURE": "protein stability index",
    "MEASURED": 4.23
  },
  {
    "RECORD SEQUENCE": "REVFNEIYPVWTYSYLVLLFPVFL [SLC19A2]",
    "OUTCOME MEASURE": "protein stability index",
    "MEASURED": 2.71
  },
  {
    "RECORD SEQUENCE": "KAQGHGAKGDNVYEFHLEFLDLVK [HACD3]",
    "OUTCOME MEASURE": "protein stability index",
    "MEASURED": 2.37
  },
  {
    "RECORD SEQUENCE": "QNRYLDGMVRAHGVRVSVPCPSTT [BET1L]",
    "OUTCOME MEASURE": "protein stability index",
    "MEASURED": 3.02
  },
  {
    "RECORD SEQUENCE": "TEELTVIKSSLKDEYQYSFWDLFR [SLC2A12]",
    "OUTCOME MEASURE": "protein stability index",
    "MEASURED": 2.38
  },
  {
    "RECORD SEQUENCE": "TIQQEKLLAEKEEKLQKEQKELQD [SASS6]",
    "OUTCOME MEASURE": "protein stability index",
    "MEASURED": 5.52
  },
  {
    "RECORD SEQUENCE": "AALDACSGNDPFAPSEGSAEAAPE [SNAP91]",
    "OUTCOME MEASURE": "protein stability index",
    "MEASURED": 5.43
  }
]

Would you kindly share the measured protein stability index for LELSYGFENGQKAAVVHHFESFPA [TOR1AIP2] ? 2.52

Would you kindly share the measured protein stability index for LGLDDFESLKVIGRGAFGEVRLVQ [STK38L] ? 3.55
